Molecular target: furin, P09958;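 note: purified furin at 1:10 enzyme:substrate in 50 mM HEPES pH 7.5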
Sequence (P09958 whole entry): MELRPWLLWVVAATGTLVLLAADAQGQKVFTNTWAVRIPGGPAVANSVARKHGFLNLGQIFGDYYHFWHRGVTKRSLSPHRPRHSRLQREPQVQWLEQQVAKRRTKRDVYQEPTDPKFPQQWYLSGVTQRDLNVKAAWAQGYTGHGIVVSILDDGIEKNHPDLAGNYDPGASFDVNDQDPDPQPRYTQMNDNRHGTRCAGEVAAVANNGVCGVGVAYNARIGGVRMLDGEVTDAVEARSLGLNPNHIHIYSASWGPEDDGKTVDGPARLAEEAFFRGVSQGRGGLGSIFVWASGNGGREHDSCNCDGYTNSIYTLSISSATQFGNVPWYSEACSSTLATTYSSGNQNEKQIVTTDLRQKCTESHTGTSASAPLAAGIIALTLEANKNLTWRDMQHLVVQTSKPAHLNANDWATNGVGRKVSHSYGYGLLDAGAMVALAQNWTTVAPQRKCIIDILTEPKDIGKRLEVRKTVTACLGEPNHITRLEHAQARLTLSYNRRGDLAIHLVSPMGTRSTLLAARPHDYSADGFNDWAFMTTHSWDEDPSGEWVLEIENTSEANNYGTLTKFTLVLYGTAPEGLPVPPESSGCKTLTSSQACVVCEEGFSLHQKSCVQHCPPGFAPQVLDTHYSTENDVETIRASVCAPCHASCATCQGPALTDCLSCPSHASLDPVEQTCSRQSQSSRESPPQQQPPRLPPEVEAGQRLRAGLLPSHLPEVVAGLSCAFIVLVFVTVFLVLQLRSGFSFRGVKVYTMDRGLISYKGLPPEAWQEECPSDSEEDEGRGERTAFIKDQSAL
Test: furin cleavage Z-score vs untreated control; higher = more cleavage, active = 3.5 or more, inactive = 1 or less, 8 variable residues between constant flanks
Conditions: 30 min
The list shows a part of the results. The true hit rate is not given.
Exercise: state measured furin cleavage Z-score for each of the sequences provided.
# respond with the number and nothing more

Sample CAYGVGSSIAAGNASASA [HC512] — what was its furin cleavage Z-score? 0.412

Return reported furin cleavage Z-score; argument: CAEFERRWRSAGNASASA [FS-230] 0.059

Form field: reported furin cleavage Z-score of CARRHVGPGEAGNASASA [HC1112] -0.867

src = the supplement of paper PMC3545927
